Assay: Cycloheximide Counterscreen for Small Molecule Inhibitors of Shiga Toxin; note: read at 38.3 µM for the half of the compounds with a filed dose; 0% is about no effect
Settings: cell reporter, cycloheximide protein synthesis inhibition counterscreen; hits give high values
The campaign covered roughly 300,000 compounds. About 37,000 (12%) were called active. This excerpt belongs to a sample that is enriched for actives.

{"COMPOUND": "Cc1ccc(Cn2c(=N)c(S(=O)(=O)c3ccc(C)cc3)cc3c(=O)n4ccccc4nc32)cc1", "UNIT_LABEL": "%", "max response": -2.4}
{"COMPOUND": "CSCCC(NC(=O)COc1ccccc1)C(=O)Nc1ccc(C)cc1 (stereo not drawn)", "UNIT_LABEL": "%", "max response": 4.05}
{"COMPOUND": "Cc1ccc(NC(=O)C(C)c2cccc(C(=O)c3ccccc3)c2)cc1 (stereo not drawn)", "UNIT_LABEL": "%", "max response": 26.6}
{"COMPOUND": "COc1ccc(/C=N/Nc2ccccc2C(=O)O)cc1", "UNIT_LABEL": "%", "max response": 38.9}
{"COMPOUND": "CN(CCOc1ccccc1)C(=O)c1cc(COc2c(F)cccc2F)on1", "UNIT_LABEL": "%", "max response": 15.4}
{"COMPOUND": "COc1cc(S(=O)(=O)Nc2ncn[nH]2)ccc1Cl", "UNIT_LABEL": "%", "max response": -1.79}
{"COMPOUND": "Cc1c(C(=O)NC(=S)NCc2cccnc2)oc2ccccc12", "UNIT_LABEL": "%", "max response": 6.33}
{"COMPOUND": "COc1ccc(/C=N/OCC(=O)N(Cc2ccccc2)c2ccccc2C(=O)O)cc1", "UNIT_LABEL": "%", "max response": -1.3}
{"COMPOUND": "O=C(NCC1CCC(C(=O)O)CC1)OCc1ccccc1 (stereo not drawn)", "UNIT_LABEL": "%", "max response": -2.25}
{"COMPOUND": "CCOC(=O)N1CCN(Cc2nc(Cc3cccc(C(F)(F)F)c3)no2)CC1", "UNIT_LABEL": "%", "max response": 9.29}
{"COMPOUND": "COc1ccc(Cc2nnc(SCC(=O)Nc3ccc(C)c(C)c3)o2)cc1OC", "UNIT_LABEL": "%", "max response": -0.716}
{"COMPOUND": "CN(C)c1nc(NN)nc(Nc2ccc(F)cc2)n1", "UNIT_LABEL": "%", "max response": -3.59}
{"COMPOUND": "O=c1c2ccccc2nc2n1C(CSCc1ccccc1)CS2 (stereo not drawn)", "UNIT_LABEL": "%", "max response": -1.46}
{"COMPOUND": "CCN(/N=C/c1ccc(N(C)C)cc1)c1nc2ccccc2[nH]1", "UNIT_LABEL": "%", "max response": 5.84}
{"COMPOUND": "CC(=O)Nc1nc(N(C)C)nc(N(C)C)n1", "UNIT_LABEL": "%", "max response": 26.5}
{"COMPOUND": "CN(C)C(=O)c1ccc2c(c1)C1C3CCC(C3)C1C(c1ccccc1)N2 (stereo not drawn)", "UNIT_LABEL": "%", "max response": -4.56}
{"COMPOUND": "Cn1ccc(=NC=C(C#N)C#N)c2ccccc21", "UNIT_LABEL": "%", "max response": 1.04}
{"COMPOUND": "COc1ccc([N+](=O)[O-])cc1N(CC(O)Cn1nnc2ccccc21)S(=O)(=O)c1ccc(C)cc1 (stereo not drawn)", "UNIT_LABEL": "%", "max response": 10.2}
{"COMPOUND": "O=C(C1CCCO1)N1CCN(S(=O)(=O)c2ccc(Br)cc2)CC1 (stereo not drawn)", "UNIT_LABEL": "%", "max response": -1.38}
{"COMPOUND": "O=C(COC(=O)c1ccc(S(=O)(=O)Nc2ccccc2)cc1)NCC1CCCO1 (stereo not drawn)", "UNIT_LABEL": "%", "max response": -1.31}
{"COMPOUND": "CSc1cccc(NC(=S)N(C(C)C)C(C)c2ccccn2)c1 (stereo not drawn)", "UNIT_LABEL": "%", "max response": 9.01}
{"COMPOUND": "O=C(O)C1CCN(C(=O)OCc2ccccc2)CC1", "UNIT_LABEL": "%", "max response": 40.2}
{"COMPOUND": "CC(=O)N1CCN(CC(c2ccccc2)c2ccccc2)CC1", "UNIT_LABEL": "%", "max response": -2.13}
